Source: patent US20060223814A1

In this section, each of the molecules is paired with its reported Ki.
tested system: human NK-2 receptor (Homo sapiens, UniProt P21452)
Construct: expressed in transfected cells; host or cells: Chinese hamster ovary (CHO) cells, membranes
Sequence (P21452 whole entry): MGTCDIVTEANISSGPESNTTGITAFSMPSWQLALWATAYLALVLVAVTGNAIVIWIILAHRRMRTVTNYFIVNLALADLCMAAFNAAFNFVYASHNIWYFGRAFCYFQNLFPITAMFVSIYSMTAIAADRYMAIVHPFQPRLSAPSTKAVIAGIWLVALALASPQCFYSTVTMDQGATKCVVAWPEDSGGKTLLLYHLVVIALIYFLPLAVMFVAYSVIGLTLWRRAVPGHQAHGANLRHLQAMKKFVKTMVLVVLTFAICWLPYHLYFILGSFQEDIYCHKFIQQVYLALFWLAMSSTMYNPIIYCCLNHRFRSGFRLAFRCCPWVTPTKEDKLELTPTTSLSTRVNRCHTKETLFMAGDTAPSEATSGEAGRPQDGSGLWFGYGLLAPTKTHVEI
assay comment: Binding test on membranes of CHO cells transfected with the human ileum NK-2 receptor, radioligand NKA in competition
reported conditions: CHO cell membranes; radioligand NKA 100 pM; incubation 30 min., 20° C.; read-out: pKi (affinity to the human NK-2 receptor) (converted)
assay metric: Ki

{"molecule": "Cc1ccc2cc(C(=O)NC3(C(=O)N[C@@H](CCC(=O)N4CCN(C5CCOCC5)CC4)Cc4ccccc4)CCCC3)sc2c1 [Example 52]", "measured value": "0.0794 nM"}
{"molecule": "Cc1ccc2cc(C(=O)NC3(C(=O)N[C@@H](CCCN4CCN(CC5CCOCC5)CC4)Cc4ccccc4)CCCC3)sc2c1 [Example 54]", "measured value": "0.0501 nM"}
{"molecule": "Cc1ccc2cc(C(=O)NC3(C(=O)N[C@@H](CCCC4CCN(CC5CCOCC5)CC4)Cc4ccccc4)CCCC3)sc2c1 [Example 58]", "measured value": "0.126 nM"}
{"molecule": "O=C(NC1(C(=O)N[C@@H](CCCN2CCC(Cc3ccccc3)CC2)Cc2ccccc2)CCCC1)c1cc2ccccc2s1 [Example 50]", "measured value": "0.126 nM"}
{"molecule": "Cc1ccc2cc(C(=O)NC3(C(=O)N[C@@H](COCCC4CCN(CC5CCOCC5)CC4)Cc4ccccc4)CCCC3)sc2c1 [Example 62]", "measured value": "0.501 nM"}
{"molecule": "Cc1ccc2cc(C(=O)NC3(C(=O)N[C@@H](CCCN4CCN(C(=O)C5CCOCC5)CC4)Cc4ccccc4)CCCC3)sc2c1 [Example 55]", "measured value": "0.1 nM"}
{"molecule": "Cc1ccc2cc(C(=O)NC3(C(=O)N[C@@H](CCC(=O)N4CCN(CC5CCOCC5)CC4)Cc4ccccc4)CCCC3)sc2c1 [Example 51]", "measured value": "0.0794 nM"}
{"molecule": "CN(C)CCCNC(=O)C=C[C@@H](Cc1ccccc1)NC(=O)C1(NC(=O)c2cc3ccccc3s2)CCCC1 [Example 46]", "measured value": "0.631 nM"}
